Tested on: HepG2
Experiment description: cytotoxicity call (relative viability < 0.9)
Condition details: 10 µM
Out of some 39,000 compounds screened, about 3,300 (8.5%) were called active. What follows is part of a selection rich in actives, with near analogues and random picks from the rest.
// one of active, inactive, no free text

Hi, do you know how `C[C@@H]1CN([C@@H](C)CO)C(=O)c2c(c3ccccc3n2C)-c2ccccc2CO[C@@H]1CN(C)CC1CCCCC1` came out in this test?
active

# fetch the recorded call for `C[C@@H]1CN([C@H](C)CO)C(=O)c2c(c3ccccc3n2C)-c2ccccc2CO[C@@H]1CN(C)C(=O)NC1CCCCC1` here
inactive

Please state the recorded outcome for this compound: `C[C@H](CO)N1C[C@H](C)[C@@H](CN(C)C(=O)NC2CCCCC2)OCc2ccccc2-c2c(n(C)c3ccccc23)C1=O`
inactive

I would be grateful if you could indicate the recorded call for `C[C@H]1CN([C@@H](C)CO)C(=O)c2c(c3ccccc3n2C)-c2ccccc2CO[C@H]1CN(C)CC1CCCCC1` .
inactive
